Measured values drawn from patent US20060281700A1 for this set.

Each entry below carries its reported pIC50.
# TARGET_DESC: wild-type FLT3 phosphorylation in Baf3 FLT3 cells (Homo sapiens, UniProt P36888)
# Sequence (P36888 27-993): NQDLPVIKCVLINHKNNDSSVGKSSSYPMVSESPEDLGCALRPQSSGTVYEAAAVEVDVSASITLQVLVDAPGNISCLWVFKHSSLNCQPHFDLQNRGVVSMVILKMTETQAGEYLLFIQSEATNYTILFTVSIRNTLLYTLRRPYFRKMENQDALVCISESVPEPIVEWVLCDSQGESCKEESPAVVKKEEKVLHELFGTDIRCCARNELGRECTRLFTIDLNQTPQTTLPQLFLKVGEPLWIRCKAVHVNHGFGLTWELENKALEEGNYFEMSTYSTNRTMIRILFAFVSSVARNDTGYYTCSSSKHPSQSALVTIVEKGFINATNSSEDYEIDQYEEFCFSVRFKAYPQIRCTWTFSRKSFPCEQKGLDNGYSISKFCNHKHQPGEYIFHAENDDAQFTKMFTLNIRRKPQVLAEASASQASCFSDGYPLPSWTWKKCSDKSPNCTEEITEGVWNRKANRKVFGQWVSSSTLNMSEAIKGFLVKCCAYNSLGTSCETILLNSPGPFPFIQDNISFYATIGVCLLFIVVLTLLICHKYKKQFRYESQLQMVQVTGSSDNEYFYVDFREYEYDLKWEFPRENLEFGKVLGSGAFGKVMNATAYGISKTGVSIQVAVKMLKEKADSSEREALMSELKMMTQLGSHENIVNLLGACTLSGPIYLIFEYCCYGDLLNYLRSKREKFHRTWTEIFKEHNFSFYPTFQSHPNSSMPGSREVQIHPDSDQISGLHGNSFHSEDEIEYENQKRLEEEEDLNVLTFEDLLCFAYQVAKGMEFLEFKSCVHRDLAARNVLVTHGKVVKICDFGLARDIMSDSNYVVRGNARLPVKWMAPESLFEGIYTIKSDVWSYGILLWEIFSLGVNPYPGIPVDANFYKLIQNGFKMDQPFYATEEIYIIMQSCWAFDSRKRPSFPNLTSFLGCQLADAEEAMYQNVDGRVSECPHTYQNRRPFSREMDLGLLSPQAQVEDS
# TEST_NAME: Cell-Based FLT3 Receptor Elisa
# RUN_CONDITIONS: 1 hour compound, 100 ng/mL Flt ligand 10 min; uncertainty ±20%
Hey, just a heads up that pIC50 is the negative log base 10 of the concentration in molar.

For orientation, consider the following solved cases.
molecule="CO/N=C/c1c(N)ncnc1N1CCC(NC(=O)Nc2ccc(N3CCOCC3)cc2)C1 (stereo not drawn) [Number 10]" target_desc="wild-type FLT3 phosphorylation in Baf3 FLT3 cells (Homo sapiens, UniProt P36888)" obs_value=5.89
molecule="CO/N=C/c1c(N)ncnc1N1CCC(NC(=O)Nc2ccc(OC(C)C)cc2)CC1 [Number 12]" target_desc="wild-type FLT3 phosphorylation in Baf3 FLT3 cells (Homo sapiens, UniProt P36888)" obs_value=6.66
molecule="CO/N=C/c1c(N)ncnc1N1CCC(OC(=O)Nc2ccc(C(C)C)cc2)CC1 [Number 5]" target_desc="wild-type FLT3 phosphorylation in Baf3 FLT3 cells (Homo sapiens, UniProt P36888)" obs_value=8.40

## Task Would you kindly share the measured pIC50 for CO/N=C/c1c(N)ncnc1N1CCC(NC(=O)Nc2ccc(OC3CCC3)nc2)CC1 [Number 15] ?
## Result 6.71

## Task Moving on to CCNC(=O)NCCO/N=C/c1c(N)ncnc1N1CCC(NC(=O)Nc2ccc(C(C)C)cc2)C1 (stereo not drawn) [Number 28]
## Result 5.64

## Task Follow-up entry: CO/N=C/c1c(N)ncnc1N1CCC(NC(=O)Nc2ccc(OC3CCCC3)nc2)C1 (stereo not drawn) [Number 21]
## Result 7.00

## Task // same read-out, input: CO/N=C/c1c(N)ncnc1N1CCC(NC(=O)Nc2ccc(Oc3ccccc3)cc2)C1 (stereo not drawn) [Number 19]
## Result 6.87

## Task Repeat with CO/N=C/c1c(N)ncnc1N1CCC(NC(=O)Nc2ccc(OC(C)C)cc2)C1 (stereo not drawn) [Number 8]
## Result 6.75

## Task How about CO/N=C/c1c(N)ncnc1N1CCC(CC(=O)Nc2ccc(C(C)C)cc2)CC1 [Number 7] ?
## Result 6.77

---

# TARGET_DESC: wild-type FLT3 phosphorylation in Baf3 FLT3 cells (Homo sapiens)
# TEST_NAME: Cell-Based FLT3 Receptor Elisa
# RUN_CONDITIONS: 1 hour compound, 100 ng/mL Flt ligand 10 min; uncertainty ±20%
QUANTITY_KIND: pIC50
pIC50 is defined as minus the log10 of a concentration measured in mol/L.

Please review the entries below; each comes with its answer.
compound="CO/N=C/c1c(N)ncnc1N1CCC(NC(=O)Nc2ccc(OC3CCCC3)nc2)CC1 [Number 23]" target_desc="wild-type FLT3 phosphorylation in Baf3 FLT3 cells (Homo sapiens)" obs_value=7.46
compound="CCO/N=C/c1c(N)ncnc1N1CCC(OC(=O)Nc2ccc(OC(C)C)cc2)CC1 [Number 2]" target_desc="wild-type FLT3 phosphorylation in Baf3 FLT3 cells (Homo sapiens)" obs_value=7.13

## Task Would you kindly share the measured pIC50 for CO/N=C/c1c(N)ncnc1N1CCC(NC(=O)Nc2ccc(C3CCCCC3)cc2)CC1 [Number 22] ?
## Result 7.40

## Task Now try CO/N=C/c1c(N)ncnc1N1CCC(NC(=O)Nc2ccc(N3CCCCC3)cc2)CC1 [Number 13] .
## Result 6.33

## Task What about CO/N=C/c1c(N)ncnc1N1CCC(NC(=O)Nc2ccc(N3CCCC3)cc2)C1 (centres unmarked) [Number 20] ?
## Result 6.52

## Task CO/N=C/c1c(N)ncnc1N1CCC(NC(=O)Nc2ccc(N3CCOCC3)cc2)CC1 [Number 14] , same question.
## Result 6.53

## Task CO/N=C/c1c(N)ncnc1N1CCC(NC(=O)Nc2ccc(Cl)cc2)CC1 [Number 25] ?
## Result 7.11

## Task Likewise for CO/N=C/c1c(N)ncnc1N1CCC(NC(=O)Nc2ccc(C3CCCCC3)cc2)C1 (centres unmarked) [Number 17] ?
## Result 6.52

---

# TARGET_DESC: wild-type FLT3 phosphorylation in Baf3 FLT3 cells (Homo sapiens)
# Sequence (P36888 27-993): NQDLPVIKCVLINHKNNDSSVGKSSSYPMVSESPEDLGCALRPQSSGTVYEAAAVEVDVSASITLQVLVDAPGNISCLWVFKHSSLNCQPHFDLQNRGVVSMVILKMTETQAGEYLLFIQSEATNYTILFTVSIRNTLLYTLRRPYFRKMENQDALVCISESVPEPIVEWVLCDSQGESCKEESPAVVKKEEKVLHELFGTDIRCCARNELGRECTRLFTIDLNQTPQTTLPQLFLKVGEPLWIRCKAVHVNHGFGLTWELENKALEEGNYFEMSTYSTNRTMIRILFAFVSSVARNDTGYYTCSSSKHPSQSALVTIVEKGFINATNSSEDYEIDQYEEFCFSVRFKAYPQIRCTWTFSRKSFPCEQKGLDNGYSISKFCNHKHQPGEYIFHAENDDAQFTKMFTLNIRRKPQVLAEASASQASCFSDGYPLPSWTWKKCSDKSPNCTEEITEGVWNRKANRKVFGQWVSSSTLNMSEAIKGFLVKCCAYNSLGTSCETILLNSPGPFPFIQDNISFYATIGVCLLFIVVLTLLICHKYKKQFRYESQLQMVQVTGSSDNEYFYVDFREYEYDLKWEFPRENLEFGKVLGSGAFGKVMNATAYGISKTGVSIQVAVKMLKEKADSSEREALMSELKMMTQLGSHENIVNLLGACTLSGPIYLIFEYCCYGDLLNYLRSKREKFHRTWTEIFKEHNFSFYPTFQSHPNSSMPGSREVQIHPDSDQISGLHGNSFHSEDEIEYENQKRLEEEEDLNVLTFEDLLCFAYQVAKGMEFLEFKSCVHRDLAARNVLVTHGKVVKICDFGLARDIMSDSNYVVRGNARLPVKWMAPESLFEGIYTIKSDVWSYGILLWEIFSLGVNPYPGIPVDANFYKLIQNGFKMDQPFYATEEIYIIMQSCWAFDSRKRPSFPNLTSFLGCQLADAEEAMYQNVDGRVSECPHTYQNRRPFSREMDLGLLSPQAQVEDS
# TEST_NAME: Cell-Based FLT3 Receptor Elisa
# RUN_CONDITIONS: 1 hour compound, 100 ng/mL Flt ligand 10 min; uncertainty ±20%
QUANTITY_KIND: IC50 (nM)
Give a bare numeral; the unit nM is implied.

compound=CC(C)Oc1ccc(NC(=O)OC2CCN(c3ncnc(N)c3/C=N/OCCCN(C)C)CC2)cc1 unit_info=nM obs_value=345
compound=CO/N=C/c1c(N)ncnc1N1CCC(OC(=O)Nc2ccc(OC(C)C)cc2)CC1 unit_info=nM obs_value=204
compound="CO/N=C/c1c(N)ncnc1N1CCC(NC(=O)Nc2ccc(N3CCCCC3)cc2)C1 (stereo not shown)" unit_info=nM obs_value=127

Next compound, please.
## Task Could you share which IC50 value was measured for CO/N=C/c1c(N)ncnc1N1CCC(CC(=O)Nc2ccc(C(C)C)cc2)C1 (stereo not shown) ?
## Result 15
